molecular target: CCR2 (Homo sapiens, UniProt P41597); construct: Membranes were prepared from THP-1 cells; endogenous in cells; assay: CCR2 receptor membrane binding assay ([125I]MCP-1, THP-1 membranes, SPA beads); details: dissociation constant hKi; THP-1 cell membranes, [125I]MCP-1, bound radioactivity after 8 h
readout_name: Ki (nM)

These solved cases illustrate the format of a correct answer.
{"compound": "CO[C@@H]1COCC[C@@H]1NC1CCN(C(=O)c2ncnc(NC[C@H]3CCC[C@@H](c4ccc(OC(F)(F)F)cc4)O3)c2C)CC1 [Example 53b]", "readout_name": "Ki", "number": 20}
{"compound": "COc1nc(NC[C@H]2CCC[C@@H](c3ccc(C(F)(F)F)cc3)O2)c(C)c(C(=O)N2CCC(N[C@@H]3CCOC[C@@H]3OC)CC2)n1 [Example 53ab]", "readout_name": "Ki", "number": 1}
{"compound": "Cc1cccc([C@@H]2CCC[C@H](CNc3ncnc(C(=O)N4CCC(N5CCC(N(C)S(C)(=O)=O)CC5)CC4)c3C)O2)c1", "readout_name": "Ki", "number": 11}
{"compound": "Cc1cccc([C@@H]2CCC[C@H](CNc3nc(C)nc(C(=O)N4CCC(N5CCC(N(C)S(C)(=O)=O)CC5)CC4)c3C)O2)c1", "readout_name": "Ki", "number": 11}

P. Cc1c(NC[C@H]2CCC[C@@H](c3ccc(OC(F)(F)F)cc3)O2)ncnc1C(=O)N1CCC(N[C@@H]2CCOC[C@@H]2F)CC1 [Example 53ak]
Q. CO[C@H]1COCC[C@H]1NC1CCN(C(=O)c2ncnc(NC[C@H]3CCC[C@@H](c4ccc(SC(F)(F)F)cc4)O3)c2C)CC1 [Example 53al]
Two entries are listed, P and Q . Which one carries the higher Ki? Answer = label.
P

###

molecular target: CCR2 (Homo sapiens, UniProt P41597); construct: Membranes were prepared from THP-1 cells; endogenous in cells; assay: CCR2 receptor membrane binding assay ([125I]MCP-1, THP-1 membranes, SPA beads); details: dissociation constant hKi; THP-1 cell membranes, [125I]MCP-1, bound radioactivity after 8 h
readout_name: Ki (nM)

{"compound": "Cc1ccc([C@H]2CCC[C@@H](CNc3ncnc(C(=O)N4CCC(N5CCC6(CC5)CC(C(=O)O)c5ccccc56)CC4)c3C)O2)cc1 (stereo partly drawn) [Example 60]", "readout_units": "nM", "Ki": 733}

1. CO[C@@H]1COCC[C@@H]1NC1CCN(C(=O)c2nccc(NC[C@H]3CCC[C@@H](c4ccc(C)cc4)O3)c2C)CC1 [Example 53k]
2. CO[C@H]1COCC[C@H]1NC1CCN(C(=O)c2cc(NC[C@H]3CCC[C@@H](c4ccc(C(F)(F)F)cc4)O3)ncn2)CC1 [Example 28k]
Two entries are listed, 1 and 2 . Which one carries the higher Ki? Could you answer with the label of the item you picked?
1

###

target: CCR2 (Homo sapiens); construct: Membranes were prepared from THP-1 cells; endogenous in cells; experiment: CCR2 receptor membrane binding assay ([125I]MCP-1, THP-1 membranes, SPA beads); conditions: dissociation constant hKi; THP-1 cell membranes, [125I]MCP-1, bound radioactivity after 8 h
pKi: −log10 of the molar value.
readout_name: pKi

{"compound": "CO[C@@H]1COCC[C@@H]1NC1CCN(C(=O)c2ncnc(NC[C@H]3CCC[C@@H](c4ccccc4)O3)c2C)CC1", "pKi": 8.22}

I. Cc1c(NC[C@H]2CCC[C@@H](c3ccc(OC(F)(F)F)cc3)O2)ncnc1C(=O)N1CCC(N2CCC(N(C)S(C)(=O)=O)CC2)CC1
II. COc1nc(NC[C@H]2CCC[C@@H](c3ccc(C(F)(F)F)cc3)O2)cc(C(=O)N2CCC(N[C@@H]3CCOC[C@@H]3OC)CC2)n1 [Example 53o]
Between item I and item II , which reported pKi is smaller? Answer with the label corresponding to your selection.
I
(I: 8.22, II: 9.00)

###

target: CCR2 (Homo sapiens, UniProt P41597); construct: Membranes were prepared from THP-1 cells; endogenous in cells; assay: CCR2 receptor membrane binding assay ([125I]MCP-1, THP-1 membranes, SPA beads); settings: dissociation constant hKi; THP-1 cell membranes, [125I]MCP-1, bound radioactivity after 8 h
pKi: −log10 of the molar value.
readout_name: pKi

{"compound": "Cc1ccc([C@@H]2CCC[C@H](CNc3nc(C)nc(C(=O)N4CCC(N5CCC(N(C)S(C)(=O)=O)CC5)CC4)c3C)O2)cc1 [Example 18]", "readout_name": "pKi", "number": 8.00}
{"compound": "CO[C@@H]1COCC[C@@H]1NC1CCN(C(=O)c2ccnc(NC[C@H]3CCC[C@@H](c4ccccc4)O3)c2C)CC1 [Example 53g]", "readout_name": "pKi", "number": 7.80}
{"compound": "COc1nc(NC[C@H]2CCC[C@@H](c3ccccc3)O2)c(C)c(C(=O)N2CCC(N[C@H]3CCOC[C@H]3OC)CC2)n1 [Example 53ag]", "readout_name": "pKi", "number": 8.30}
{"compound": "COc1nc(NC[C@H]2CCC[C@@H](c3ccc(C)cc3)O2)c(C)c(C(=O)N2CCC(N[C@H]3CCOC[C@H]3OC)CC2)n1 [Example 53aa]", "readout_name": "pKi", "number": 8.70}
{"compound": "Cc1ccc([C@@H]2CCC[C@H](CNc3ncnc(C(=O)N4CCC(N5CCC6(CC5)Cc5ccccc5O6)CC4)c3C)O2)cc1 [Example 53x]", "readout_name": "pKi", "number": 8.05}

P. CO[C@H]1COCC[C@H]1NC1CCN(C(=O)c2ncnc(NC[C@@H]3CCC[C@H](c4cccc(C)c4)O3)c2C)CC1 [Example 32]
Q. COc1nc(NC[C@H]2CCC[C@@H](c3ccccc3)O2)c(C)c(C(=O)N2CCC(N[C@@H]3CCOC[C@@H]3OC)CC2)n1 [Example 53af]
Looking at P and Q , which one comes out lower in pKi terms? In your reply, give the label of the chosen option.
P

###

Target: CCR2 (Homo sapiens)
Construct: Membranes were prepared from THP-1 cells; endogenous in cells
Sequence (P41597 1-360 isoform P41597-2): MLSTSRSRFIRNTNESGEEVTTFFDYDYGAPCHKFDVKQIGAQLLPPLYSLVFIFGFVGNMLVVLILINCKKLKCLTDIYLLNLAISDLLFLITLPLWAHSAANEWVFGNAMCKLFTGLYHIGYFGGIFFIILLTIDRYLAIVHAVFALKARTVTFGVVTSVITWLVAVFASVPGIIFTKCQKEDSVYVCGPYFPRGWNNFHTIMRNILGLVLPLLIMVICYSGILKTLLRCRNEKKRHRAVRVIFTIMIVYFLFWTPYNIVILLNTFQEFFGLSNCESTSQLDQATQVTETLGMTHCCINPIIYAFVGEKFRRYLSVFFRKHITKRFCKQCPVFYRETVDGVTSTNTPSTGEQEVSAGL
Experiment: CCR2 receptor membrane binding assay ([125I]MCP-1, THP-1 membranes, SPA beads)
Details: dissociation constant hKi; THP-1 cell membranes, [125I]MCP-1, bound radioactivity after 8 h
Protocol: The above exemplary substances have been tested for binding to CCR2 using a binding assay as outlined herein below: THP-1 cells (human acute monocytic leukaemia cells) were cultured under standardized conditions at 37° C. and 5% CO2 in a humidified incubator. […] Perkin Elmer NEX 332 Jod 125 MCP-1, Stock: 2200 Ci/mmol solved in 2000 μl assay buffer, stored at −20° C. […] Bound radioactivity was determined by scintillation counter after 8 h. […]
pKi: −log10 of the molar value.
readout_name: pKi

Past entries and their recorded results:
{"compound": "CO[C@@H]1COCC[C@@H]1NC1CCN(C(=O)c2nc(C)nc(NC[C@@H]3CCC[C@H](c4cccc(C)c4)O3)c2C)CC1", "pKi": 7.02}
{"compound": "CO[C@H]1COCC[C@H]1NC1CCN(C(=O)c2cc(NC[C@H]3CCC[C@@H](c4ccc(C)cc4)O3)ncn2)CC1 [Example 28h]", "pKi": 8.40}
{"compound": "CO[C@@H]1COCC[C@@H]1NC1CCN(C(=O)c2ncnc(NC[C@@H]3CCC[C@H](c4ccc(C(F)(F)F)cc4)O3)c2C)CC1", "pKi": 7.60}
{"compound": "CO[C@H]1COCC[C@H]1NC1CCN(C(=O)c2nc(C(F)(F)F)nc(NC[C@H]3CCC[C@@H](c4ccccc4)O3)c2C)CC1 [Example 53ah]", "pKi": 9.10}

I. Cc1ccc([C@@H]2CCC[C@H](CNc3cc(C(=O)N4CCC(N5CCC(N(C)S(C)(=O)=O)CC5)CC4)ncn3)O2)cc1 [Example 28g]
II. Cc1ccc([C@@H]2CCC[C@H](CNc3ncnc(C(=O)N4CCC(N5CCC(c6cccc(C(=O)O)c6)C5)CC4)c3C)O2)cc1 (stereo partly drawn)
Compare I and II and name the one whose reported pKi is smaller. Write down the label of the entry you select.
II
